Test system: platelet aggregation
experimental-protocol: Inhibition of platelet aggregation in Guinea pig (ADP-induced, platelet-rich plasma)
Assay type: cell-based, male guinea pig
condition-set: Cavia porcellus, guinea pig PRP, ADP final concentration 5 μM, 37° C.
Please respond with reported IC50 for every item in the list.
One number for each entry, in µM.

Below: 6 compounds and their reported IC50.
NCc1ccc(C(=O)Nc2ccc3c(c2)CC(CC(=O)O)CC3)cc1 (centres unmarked)
14
N=C(N)Nc1ccc(C(=O)Nc2ccc3c(c2)CC(CC(=O)O)CC3)cc1 (centres unmarked)
27
N=C(N)c1ccc(C(=O)Nc2ccc3c(c2)CC(CC(=O)O)CC3)cc1 (centres unmarked)
0.37
N=C(N)c1ccc(C(=O)Nc2ccc3c(c2)CN(CC(=O)O)CC3)cc1
6.6
N=C(N)c1ccc(COc2ccc3c(c2)CC(CC(=O)O)CO3)cc1 (centres unmarked)
12
CCOC(=O)CN1CCc2ccc(C(=O)Nc3ccc(C(=N)N)cc3)cc2C1
4.3

Proceed to the following item.
Request: Recall and state the measured IC50 for N=C(N)c1ccc(CNc2ccc3c(c2)CC(CC(=O)O)CC3)cc1 (centres unmarked) .
Response: 24

* * *

Please respond with reported IC50 for every item in the list.
Test system: platelet aggregation
experimental-protocol: Inhibition of platelet aggregation in human (ADP-induced, platelet-rich plasma)
Format: cell-based
condition-set: human PRP, ADP final concentration 5 μM, 37° C.
Procedure: 2. Inhibition of platelet aggregation in human Blood was collected from healthy human volunteers with an injection syringe and mixed one volume of 3.8% sodium citrate as an anticoagulant to 9 volumes of the blood. […] Numbers of the platelet were measured with an automatic platelet counter: Sysmex PL-100 (manufactured by Toa Iyodensi Co.) and PRP was diluted with PPP so as to adjust a platelet concentration to be about 250,000 particles/μl. […]
Where a name gives a salt, the structure may show the parent alone.
Answers are plain numbers, in nM.

Below: 4 molecules and their reported IC50.
CN(C(=O)c1ccc(C(=N)N)cc1)c1ccc2c(c1)CC(CC(=O)O)CC2 (centres unmarked)
194
N=C(N)c1ccc(COc2ccc3c(c2)CC(CC(=O)O)CC3)cc1 (centres unmarked)
1500
N=C(N)c1ccc(C(=O)Nc2ccc3c(c2)C(=O)N(CC(=O)O)CC3)cc1 [Comparative compound, hydrochloride, reference compound]
3900
N=C(N)c1ccc(NC(=O)c2ccc3c(c2)CC(CC(=O)O)CC3)cc1 (centres unmarked)
46

Give measured IC50 for every item shown.
1. N=C(N)c1ccc(C(=O)Nc2ccc3c(c2)CN(CC(=O)O)CC3)cc1
2. CN(C(=O)c1ccc2c(c1)CC(CC(=O)O)CC2)c1ccc(C(=N)N)cc1 (centres unmarked)
3. N=C(N)c1ccc(C(=O)Nc2ccc3c(c2)CC(CC(=O)O)CO3)cc1 (centres unmarked)
4. N=C(N)c1ccc(C(=O)Nc2ccc3c(c2)CC(CC(=O)O)CC3)cc1 (centres unmarked)

Response:
[293, 115, 49, 57]

* * *

Tested on: platelet aggregation
experimental-protocol: Inhibition of platelet aggregation in Guinea pig (ADP-induced, platelet-rich plasma)
Format: cell-based, male guinea pig
condition-set: Cavia porcellus, guinea pig PRP, ADP final concentration 5 μM, 37° C.
Please respond with reported pIC50 for every item in the list.
Answers are plain numbers, as −log10 of the molar value.

Below: 5 compounds and their reported pIC50.
CN(C(=O)c1ccc2c(c1)CC(CC(=O)O)CC2)c1ccc(C(=N)N)cc1 (stereo not drawn)
6.47
N=C(N)c1ccc(OCc2ccc3c(c2)CC(CC(=O)O)CC3)cc1 (stereo not drawn)
4.41
COC(=O)CC1CCc2ccc(OCc3ccc(C(=N)N)cc3)cc2C1 (stereo not drawn)
4.66
CCOC(=O)CC1CCc2ccc(C(=O)Nc3ccc(C(=N)N)cc3)cc2C1 (stereo not drawn)
6.47
N=C(N)c1ccc(COc2ccc3c(c2)C=C(CC(=O)O)CC3)cc1
4.39

Give measured pIC50 for every item shown.
1. CN(C(=O)c1ccc(C(=N)N)cc1)c1ccc2c(c1)CC(CC(=O)O)CC2 (stereo not drawn)
2. CCOC(=O)CC1CCc2ccc(NC(=O)c3ccc(C(=N)N)cc3)cc2C1 (stereo not drawn)
3. N=C(N)c1ccc(NC(=O)c2ccc3c(c2)CC(CC(=O)O)CC3)cc1 (stereo not drawn)

Response:
1: 5.75; 2: 6.40; 3: 6.64

Request: Recall and state the measured pIC50 for CCOC(=O)CC1COc2ccc(OCc3ccc(C(=N)N)cc3)cc2C1 (stereo not drawn) .
Response: 4.77
